- assay.target: Substance-P receptor (Cavia porcellus)
- experiment: In vitro inhibition of substance P (6-11) hexapeptide induced contractions of the guinea pig ileum at 5 uM.
- Format: tissue-based
recorded.metric: Activity (dose ratio)
Your answer should be a plain number; it is taken to be in dose ratio.

Enquiry: Please report the recorded Activity for COC(=O)[C@@H](CCSC)NC(=O)[C@H](CC(C)C)SCCNC(=O)[C@H](Cc1ccccc1)NC(=O)[C@@H](Cc1ccccc1)NC(=O)[C@H](CCCN=C(N)N)NC(=O)[C@H](CC(N)=O)NC(=O)OCc1ccccc1 .
Return: 69

* * *

- assay.target: Substance-P receptor (Rattus norvegicus, UniProt P14600)
- Sequence (P14600 whole entry): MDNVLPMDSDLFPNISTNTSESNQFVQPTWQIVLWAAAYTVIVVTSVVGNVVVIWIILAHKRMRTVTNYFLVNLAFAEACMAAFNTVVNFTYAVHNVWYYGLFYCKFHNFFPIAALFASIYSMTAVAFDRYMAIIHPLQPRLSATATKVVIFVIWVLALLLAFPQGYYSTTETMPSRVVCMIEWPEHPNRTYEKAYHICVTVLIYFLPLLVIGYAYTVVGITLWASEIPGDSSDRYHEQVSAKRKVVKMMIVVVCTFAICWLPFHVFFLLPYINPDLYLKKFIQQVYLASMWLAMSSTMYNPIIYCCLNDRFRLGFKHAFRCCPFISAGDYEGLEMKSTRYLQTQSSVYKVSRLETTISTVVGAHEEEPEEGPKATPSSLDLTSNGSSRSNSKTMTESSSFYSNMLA
- experiment: Histamine releasing activity of Substance P from isolated rat peritoneal mast cells
- Assay type: functional
Labelling field: enter Criterion met if recorded IC50 is less than 30 µM. Enter Criterion not met if it equals or exceeds that cut-off.

Examples from the recorded data:
Enquiry: Is IC50 strictly under 30 µM for the entry COC(=O)[C@H](CCSC)NC(=O)[C@H](CC(C)C)NC(=O)[C@@H](Cc1c[nH]c2ccccc12)NC(=O)[C@H](Cc1ccccc1)NC(=O)[C@@H](Cc1ccccc1)NC(=O)[C@H](CCCN=C(N)N)NC(=O)[C@H](CC(N)=O)NC(=O)OC(C)(C)C ?
Return: Criterion not met

Enquiry: Is IC50 strictly under 30 µM for the entry COC(=O)[C@@H](CCSC)NC(=O)[C@@H](CC(C)C)SCCNC(=O)[C@@H](Cc1ccccc1)NC(=O)[C@@H](Cc1ccccc1)NC(=O)[C@H](CCC(N)=O)NC(=O)[C@H](CCC(N)=O)NC(=O)[C@H]1CCCN1C(=O)[C@H](CCCCNC(=O)OCc1ccccc1)NC(=O)[C@H]1CCCN1C(=O)[C@H](CCCN=C(N)N)NC(=O)OCc1ccccc1 ?
Return: Criterion met

Enquiry: Is IC50 strictly under 30 µM for the entry COC(=O)[C@@H](CCSC)NC(=O)[C@H](CC(C)C)SCCNC(=O)[C@@H](Cc1ccccc1)NC(=O)[C@@H](Cc1ccccc1)NC(=O)[C@H](CCC(N)=O)NC(=O)[C@H](CCC(N)=O)NC(=O)[C@H]1CCCN1C(=O)[C@H](CCCCNC(=O)OCc1ccccc1)NC(=O)[C@H]1CCCN1C(=O)[C@H](CCCNC(=N)N)NC(=O)OCc1ccccc1 ?
Return: Criterion not met

Enquiry: Is IC50 strictly under 30 µM for the entry CSCC[C@H](NC(=O)[C@H](CC(C)C)NC(=O)[C@@H](Cc1c[nH]c2ccccc12)NC(=O)[C@H](Cc1ccccc1)NC(=O)[C@@H](Cc1ccccc1)NC(=O)[C@H](CCCNC(=N)N)NC(=O)[C@H](CC(N)=O)NC(=O)[C@@H]1CCCN1C(=O)[C@H](CCCCNC(=O)OCc1ccccc1)NC(=O)[C@H]1CCCN1C(=O)[C@H](CCCNC(=N)N)NC(=O)OCc1ccccc1)C(N)=O ?
Return: Criterion met

---
Enquiry: Is IC50 strictly under 30 µM for the entry COC(=O)[C@H](CCSC)NC(=O)[C@H](CC(C)C)NC(=O)[C@@H](Cc1c[nH]c2ccccc12)NC(=O)[C@H](Cc1ccccc1)NC(=O)[C@@H](Cc1ccccc1)NC(=O)[C@H](CCCN=C(N)N)NC(=O)[C@H](CC(N)=O)NC(=O)C1CCCN1C(=O)[C@H](CCCCNC(=O)OCc1ccccc1)NC(=O)C1CCCN1C(=O)[C@H](CCCN=C(N)N)NC(=O)OCc1ccccc1 (stereo in doubt) ?
Return: Criterion met

Enquiry: Is IC50 strictly under 30 µM for the entry CSCCC(NC(=O)C(CC(C)C)NC(=O)[C@@H](Cc1c[nH]c2ccccc12)NC(=O)[C@H](Cc1ccccc1)NC(=O)[C@@H](Cc1c[nH]c2ccccc12)NC(=O)[C@H](CCC(N)=O)NC(=O)[C@H](CCC(N)=O)NC(=O)[C@@H]1CCCN1C(=O)[C@H](CCCCN)NC(=O)[C@H]1CCCN1C(=O)[C@@H](N)CCCNC(=N)N)C(N)=O (stereo in doubt) ?
Return: Criterion met
